molecular target: recombinant soluble tissue factor and recombinant human factor VIIa (TF-VIIa) (Homo sapiens); construct: conversion of coagulation factor VII to VIIa by Xa; purchased American Diagnostica, Greenwich Conn; host or cells: factor VIIa purchased; soluble TF made in house in E. coli; assay: TF-VIIa Assay; assay type: biochemical; conditions: cells without % sign; read-out: IC50 TF-VIIa
Catalogue of IC50 readings, one per entry.
Give the quantity in nM, number only.

> print(dat)
                                   compound  numeric.readout
1  CCC(C)(C)Nc1nc(Cl)c(-c2cccc(N)c2)n(CC(=O)NCc2ccc(C(=N)N)cc2)c1=O              170

[in] Supply recorded IC50 for CC(C(=O)NCc1ccc(C(=N)N)cc1)n1c(-c2ccccc2)c(Cl)nc(NCCc2ccccc2)c1=O (stereo not drawn) [Example 1517-17] here.
[out] 1800

[in] Supply recorded IC50 for CC(C)CC(C)Nc1nc(Cl)c(-c2cccc(N)c2)n(CC(=O)NCc2ccc(C(=N)N)cc2)c1=O (stereo not drawn) here.
[out] 80

[in] Supply recorded IC50 for CC(C(=O)NCc1ccc(C(=N)N)cc1)n1c(-c2ccccc2)c(Cl)nc(NCCc2cccc(Cl)c2)c1=O (stereo not drawn) here.
[out] 2300

----------
Catalogue of % Inhibition Trpysin II (100 νM) readings, one per entry.
target: Trypsin (type 1× from porcine pancreas) (Sus scrofa); construct: Trypsin (5 ug/ml; type 1× from porcine pancreas); purchased Sigma, St. Louis Mo; host or cells: porcine pancreas; assay: Trypsin Assay; type: biochemical
Give the quantity in %, number only.

[in] Supply recorded % Inhibition Trpysin II (100 νM) for O=C(Cn1c(-c2ccc(-c3ccccc3)cc2)c(Cl)nc(NCCc2cccnc2)c1=O)NCCc1ccncc1 [Example E-0053] here.
[out] 0

[in] Supply recorded % Inhibition Trpysin II (100 νM) for O=C(Cn1c(-c2ccc(-c3ccccc3)cc2)c(Cl)nc(NCc2ccncc2)c1=O)NCCc1ccncc1 [Example E-0056] here.
[out] 0

----------
molecular target: Human factor Xa (Homo sapiens); construct: Human factor Xa (0.3 nM); purchased Enzyme Research Laboratories, South Bend Ind; assay: Xa Assay; format: biochemical; details: at 100 μM
Sequence (P00742 235-488 limits assumed): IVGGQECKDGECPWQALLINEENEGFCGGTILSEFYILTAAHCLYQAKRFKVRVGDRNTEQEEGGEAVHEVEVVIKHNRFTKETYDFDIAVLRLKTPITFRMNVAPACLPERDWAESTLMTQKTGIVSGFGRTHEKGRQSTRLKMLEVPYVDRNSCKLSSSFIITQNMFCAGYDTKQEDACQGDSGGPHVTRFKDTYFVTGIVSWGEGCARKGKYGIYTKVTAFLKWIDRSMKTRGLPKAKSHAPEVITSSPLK
Sequence (P00742 41-179 limits assumed): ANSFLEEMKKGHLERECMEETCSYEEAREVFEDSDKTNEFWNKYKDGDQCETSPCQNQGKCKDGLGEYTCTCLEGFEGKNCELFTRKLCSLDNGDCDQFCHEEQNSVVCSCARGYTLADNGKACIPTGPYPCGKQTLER
Please note: YES applies when % Inhibition Factor Xa at 100 μM is 40 % at or greater, and NO applies otherwise.

Examples with answers:
> print(dat)
                                   compound  group.label
1  CC(C)Nc1nc(Cl)c(-c2cc(N)cc(C(=O)NCc3ccc(Cl)cc3Cl)c2)n(CC(=O)NCc2ccc(C(=N)N)cc2)c1=O          YES
2  CC(CC(=O)O)Nc1nc(Cl)c(-c2cccc(N)c2)n(CC(=O)NCc2ccc(C(=N)N)cc2)c1=O (centres unmarked)           NO
3  CC(C)Nc1nc(Cl)c(-c2cc(N)cc(C(=O)NCc3ccc(Br)cc3)c2)n(CC(=O)NCc2ccc(C(=N)N)cc2)c1=O          YES
4  C[C@H](Nc1nc(Cl)c(-c2cccc(N)c2)n(CC(=O)NCc2ccc(C(=N)N)cc2)c1=O)C(=O)O           NO

[in] Determine whether this compound has % Inhibition Factor Xa at 100 μM no lower than 40 % at: N=C(N)c1ccc(CNC(=O)Cn2c(-c3cccc(N)c3)c(Cl)nc(NC(CC(=O)O)c3ccccc3)c2=O)cc1 (racemic)
[out] NO

----------
molecular target: recombinant soluble tissue factor and recombinant human factor VIIa (TF-VIIa) (Homo sapiens, UniProt P08709); construct: conversion of coagulation factor VII to VIIa by Xa; purchased American Diagnostica, Greenwich Conn; host or cells: factor VIIa purchased; soluble TF made in house in E. coli; assay: TF-VIIa Assay; type: biochemical; details: inhibitor at 100 νM
Sequence (P08709 213-466 limits assumed): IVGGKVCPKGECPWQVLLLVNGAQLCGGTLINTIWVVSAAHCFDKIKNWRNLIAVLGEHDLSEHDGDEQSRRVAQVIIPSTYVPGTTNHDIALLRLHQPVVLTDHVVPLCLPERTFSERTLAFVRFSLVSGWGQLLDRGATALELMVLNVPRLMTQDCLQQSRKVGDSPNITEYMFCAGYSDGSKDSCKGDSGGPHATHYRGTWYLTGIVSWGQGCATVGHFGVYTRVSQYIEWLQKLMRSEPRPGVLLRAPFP
Sequence (P08709 61-212 limits assumed): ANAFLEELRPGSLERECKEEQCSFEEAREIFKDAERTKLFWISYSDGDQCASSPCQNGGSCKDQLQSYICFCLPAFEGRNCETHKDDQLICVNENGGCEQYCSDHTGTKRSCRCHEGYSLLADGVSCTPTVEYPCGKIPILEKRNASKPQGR
Sequence (P13726 33-251 partner limits assumed): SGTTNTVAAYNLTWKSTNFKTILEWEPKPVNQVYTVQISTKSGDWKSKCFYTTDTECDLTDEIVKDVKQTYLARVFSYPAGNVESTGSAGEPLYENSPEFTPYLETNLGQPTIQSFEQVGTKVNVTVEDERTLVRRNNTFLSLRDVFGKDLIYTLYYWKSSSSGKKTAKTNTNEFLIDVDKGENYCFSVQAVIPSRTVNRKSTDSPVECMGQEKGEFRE
OBSERVABLE: % Inhibition TF-VIIa (100 νM) (%)
Give the quantity in %, number only.

> print(dat)
                                   compound                     observable  numeric.readout
1  COc1ccc(-c2c(Cl)nc(NCc3ccncc3)c(=O)n2CC(=O)NCCc2ccncc2)cc1 [Example E-0040]  % Inhibition TF-VIIa (100 νM)                0
2  O=C(Cn1c(-c2ccc(Cl)cc2)c(Cl)nc(NCCc2cccc(Cl)c2)c1=O)NCCc1ccncc1 [Example E-0019]  % Inhibition TF-VIIa (100 νM)                0
3  O=C(Cn1c(-c2ccccc2)c(Cl)nc(NCCc2cccc(Cl)c2)c1=O)NCCc1ccncc1 [Example E-0011]  % Inhibition TF-VIIa (100 νM)                0
4  Cc1c(Cl)nc(NCc2ccccc2)c(=O)n1CC(=O)NCCc1ccncc1 [Example E-0001]  % Inhibition TF-VIIa (100 νM)                0

[in] Supply recorded % Inhibition TF-VIIa (100 νM) for COc1ccc(-c2c(Cl)nc(NCCc3ccc(Cl)cc3)c(=O)n2CC(=O)NCCc2cccnc2)cc1 [Example E-0107] here.
[out] 4

[in] Supply recorded % Inhibition TF-VIIa (100 νM) for O=C(Cn1c(-c2ccc(Cl)cc2)c(Cl)nc(NCCc2cccnc2)c1=O)NCCc1ccncc1 [Example E-0021] here.
[out] 0

[in] Supply recorded % Inhibition TF-VIIa (100 νM) for O=C(Cn1c(-c2cccc(Cl)c2)c(Cl)nc(NCCc2ccc(Cl)cc2)c1=O)NCCc1cccnc1 [Example E-0095] here.
[out] 2

----------
molecular target: Trypsin (type 1× from porcine pancreas) (Sus scrofa, UniProt P00761); construct: Trypsin (5 ug/ml; type 1× from porcine pancreas); purchased Sigma, St. Louis Mo; host or cells: porcine pancreas; assay: Trypsin Assay; assay type: biochemical; set-up: concentration or dose not given beside the values; details: @ 1
Sequence (P00761 9-231): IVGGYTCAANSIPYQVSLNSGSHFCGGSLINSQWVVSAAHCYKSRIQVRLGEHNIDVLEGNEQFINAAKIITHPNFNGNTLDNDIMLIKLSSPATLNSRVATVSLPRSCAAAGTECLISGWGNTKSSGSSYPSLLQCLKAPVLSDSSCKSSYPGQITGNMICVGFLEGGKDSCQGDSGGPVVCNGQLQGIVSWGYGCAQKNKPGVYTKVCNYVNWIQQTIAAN
OBSERVABLE: % Inhibition Trypsin II @ 1 (% @ 1)
Give the quantity in % @ 1, number only.

> print(dat)
                                   compound  unit.of.measurement  numeric.readout
1  N=C(N)c1ccc(CNC(=O)Cn2c(-c3ccccc3)c(Cl)nc(NCc3cccc(Cl)c3)c2=O)cc1 [1507-38]                % @ 1                0

[in] Supply recorded % Inhibition Trypsin II @ 1 for N=C(N)c1ccc(CNC(=O)Cn2c(-c3ccccc3)c(Cl)nc(NC3CCCC3)c2=O)cc1 [1507-25] here.
[out] 60

[in] Supply recorded % Inhibition Trypsin II @ 1 for N=C(N)c1ccc(CNC(=O)Cn2c(-c3ccccc3)c(Cl)nc(NCc3ccccc3C(F)(F)F)c2=O)cc1 [1507-15] here.
[out] 11

[in] Supply recorded % Inhibition Trypsin II @ 1 for N=C(N)c1ccc(CNC(=O)Cn2c(-c3ccccc3)c(Cl)nc(NCc3ccc(OC(F)(F)F)cc3)c2=O)cc1 [1507-04] here.
[out] 9

[in] Supply recorded % Inhibition Trypsin II @ 1 for N=C(N)c1ccc(CNC(=O)Cn2c(-c3ccccc3)c(Cl)nc(NCCc3cccs3)c2=O)cc1 [1507-18] here.
[out] 6

[in] Supply recorded % Inhibition Trypsin II @ 1 for N=C(N)c1ccc(CNC(=O)Cn2c(-c3ccccc3)c(Cl)nc(NCc3ccc(Cl)cc3Cl)c2=O)cc1 [1507-22] here.
[out] 8

[in] Supply recorded % Inhibition Trypsin II @ 1 for N=C(N)c1ccc(CNC(=O)Cn2c(-c3ccccc3)c(Cl)nc(NCc3cccc4ccccc34)c2=O)cc1 [1507-28] here.
[out] 1

[in] Supply recorded % Inhibition Trypsin II @ 1 for N=C(N)c1ccc(CNC(=O)Cn2c(-c3ccccc3)c(Cl)nc(NCc3cccc(F)c3)c2=O)cc1 [1507-42] here.
[out] 0

----------
biological target: Trypsin (type 1× from porcine pancreas) (Sus scrofa); construct: Trypsin (5 ug/ml; type 1× from porcine pancreas); purchased Sigma, St. Louis Mo; host or cells: porcine pancreas; experiment: Trypsin Assay; assay type: biochemical; conditions: inhibitor at 100 νM
OBSERVABLE: % Inhibition Trpysin II (100 νM) (%)
Give the quantity in %, number only.

> print(dat)
                                   molecule  numeric.readout
1  O=C(Cn1c(-c2ccc(Cl)cc2)c(Cl)nc(NCCc2cccnc2)c1=O)NCCc1ccncc1 [Example E-0021]                5
2  O=C(Cn1c(CCc2ccccc2)c(Cl)nc(NCCc2cccnc2)c1=O)NCCc1ccncc1 [Example E-0069]                0
3  COc1ccc(-c2c(Cl)nc(NCCN3CCOCC3)c(=O)n2CC(=O)NCCc2ccncc2)cc1 [Example E-0039]                2

Here is another molecule to look at.
[in] Supply recorded % Inhibition Trpysin II (100 νM) for O=C(Cn1c(-c2cccc(Cl)c2)c(Cl)nc(NCCc2ccc(Cl)cc2)c1=O)NCCc1cccnc1 [Example E-0095] here.
[out] 9
